# TEST_METHOD_NOTES: RAM signaling pathway blockade in yeast – S. cerevisiae, Pdr1DBD-CYC8 efflux-inhibited sensitized strain, primary screen (AID 1298);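 note: 0% = DMSO untreated cells without growth and 100% = 10 µM 1-NA-PP1 full growth; higher means more yeast growth rescued from 5-FOA killing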
# TEST_CONTEXT: S. cerevisiae cbk1-as DSE1-URA3 strain, 5-FOA growth OD615, 2 d; at 50 µM; stronger effect = higher value
REPORTED_PROPERTY: RAM network inhibition (%)

> print(dat)
                                   compound       reported.property  observed
1  O=C(Nc1ccccc1Cl)c1ccc2c(c1)N(Cc1ccc(F)cc1)C(=O)CS2=O (stereo not given)  RAM network inhibition      3.95
2  Cn1c(=O)oc2cc(S(=O)(=O)N3CCC(C(=O)N4CC=C(c5ccccc5)CC4)CC3)ccc21  RAM network inhibition      6.76
3  COc1cccc(C2NC(CCSC)(C(=O)O)C3C(=O)N(C(C)C)C(=O)C23)c1O (stereo not given)  RAM network inhibition     -1.51
4  CC(C)C(=O)Nc1ccc2c(c1)C(=O)N(CCC(=O)O)C2=O  RAM network inhibition     -0.51
5  O=C(c1cncc(Br)c1)N1CCN(c2ccc(N3CCOCC3)nn2)CC1  RAM network inhibition      4.09

---

Reported values of viability for individual entries
# TEST_METHOD_NOTES: growth suppression of PTEN-deleted HCT116, pilot screen, cell-based, HCT116 clonal line, CellTiter-Glo (AID 824);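 note: 0% = 20 µM Hyamine control and 100% = vehicle cell control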
# TEST_CONTEXT: 60 h, at 10 µM, stronger effect = lower value
Records with an inconclusive call do not appear.
REPORTED_PROPERTY: viability (%)

> print(dat)
                                   compound  unit.string  observed
1     CCOC(=O)N1CCC(NC(=O)c2ccc3snnc3c2)CC1            %      89.7
2           O=C(c1cnn2ccccc12)N1CCc2ccccc21            %      91.9
3       Cc1ccc(C)c(SCC(=O)OCC(=O)c2ccco2)c1            %      91.6
4  CS(=O)(=O)N(CC(=O)N1CCN(c2ccccc2F)CC1)c1cc(C(F)(F)F)ccc1Cl            %      88.3
5  COc1ccc(OC)c(S(=O)(=O)N2CCCCC2C(=O)N2CCN(c3ccccn3)CC2)c1 (centres undefined)            %      91.8
6  CC(Oc1ccc(Cl)cc1Cl)C(=O)NCc1ccncc1 (centres undefined)            %      89.1
7  CCOCCOC(=O)C1=C(C)NC2=C(C(=O)CC(c3cccs3)C2)C1c1ccsc1 (centres undefined)            %      89.2
8  CC(=O)Nc1ccc(S(=O)(=O)Nc2cccc(C(=O)NC(C)(C)C)c2)cc1            %      88.2
9  O=C(CSc1ccc2nnc(-c3ccccn3)n2n1)NCc1ccc2c(c1)OCO2            %      91.7

---

# TEST_METHOD_NOTES: viability gain of MRP-1-high H69AR cells under doxorubicin, pilot screen, MRP-1 activator project, CellTiter-Glo, duplicate (AID 807);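 note: compound pretreatment 18-22 h then 72 h combined with doxorubicin; 0% = doxorubicin alone and 100% = vehicle without doxorubicin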
# TEST_CONTEXT: H69AR viability with doxorubicin, CellTiter-Glo luminescence; at 10 µM; stronger effect = higher value
REPORTED_PROPERTY: viability increase (%)

> print(dat)
                                   molecule  unit.string  observed
1  CC1=C(C(=O)Nc2ccccc2C)C(c2ccccc2)NC(=O)N1 (centres undefined)            %     -1.25
2  COc1ccc(-c2n[nH]c(C(F)(F)F)c2-c2cc3ccccc3o2)c(O)c1            %     -7.49
3  COc1ccc(C2C=C(c3ccccc3)Nc3nnnn32)cc1 (centres undefined)            %      0.19
4  CCC(CC)C(=O)Nc1cc(C)c2c(=O)oc3ccccc3c2n1            %     -5.01
5  Cc1ccc(NC(=O)CC2SC3=NCCN3C2=O)cc1 (centres undefined)            %      3.08
6          Cc1cc2ccccc2n1CCNC(=O)COc1ccccc1            %      -0.8
7  Cc1cc(NC(=O)CC(CN(C)S(=O)(=O)c2ccccc2)c2ccccc2)no1 (centres undefined)            %     -4.04
8  O=C(CSc1nc2c(c(=O)n1-c1ccc(Cl)cc1)SCC2)N1CCCC1            %     -4.23
9  COc1cc(OC)cc(-c2cc3nc(C)c(CCC(=O)O)c(C)n3n2)c1            %     -2.31
